- assaySystem: Prostaglandin F receptor (FP) (Homo sapiens, UniProt P43088)
- Sequence (P43088 whole entry): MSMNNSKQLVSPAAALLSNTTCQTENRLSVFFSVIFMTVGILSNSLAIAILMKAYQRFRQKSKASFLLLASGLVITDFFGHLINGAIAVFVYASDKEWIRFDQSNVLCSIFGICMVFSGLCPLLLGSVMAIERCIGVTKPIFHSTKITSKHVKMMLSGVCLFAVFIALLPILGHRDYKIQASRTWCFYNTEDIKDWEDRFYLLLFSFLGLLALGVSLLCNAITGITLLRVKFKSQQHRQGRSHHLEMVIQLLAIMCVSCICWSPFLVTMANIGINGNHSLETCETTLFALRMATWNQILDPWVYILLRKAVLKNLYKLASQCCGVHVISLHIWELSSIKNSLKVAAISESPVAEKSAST
- method: Unimolecular DAG sensor BRET, FP activation
- experimentalSetup: FP-transfected HEK293SL, 1 min stimulation, read-out: EC50, DAG produced at the plasma membrane
experimentalReadout: pEC50
Just the number, please; pEC50 means minus log10 of the concentration in mol/L.

Would you kindly share the measured pEC50 for CCCCC[C@H](O)/C=C/[C@H]1[C@H](O)CC(=O)[C@@H]1C/C=C\CCCC(=O)O [PGE2, Prostaglandin E2] ?
7.05

* * *

- assaySystem: AT1R (Homo sapiens, UniProt P30556)
- Sequence (P30556 with tags, fused parts or gaps): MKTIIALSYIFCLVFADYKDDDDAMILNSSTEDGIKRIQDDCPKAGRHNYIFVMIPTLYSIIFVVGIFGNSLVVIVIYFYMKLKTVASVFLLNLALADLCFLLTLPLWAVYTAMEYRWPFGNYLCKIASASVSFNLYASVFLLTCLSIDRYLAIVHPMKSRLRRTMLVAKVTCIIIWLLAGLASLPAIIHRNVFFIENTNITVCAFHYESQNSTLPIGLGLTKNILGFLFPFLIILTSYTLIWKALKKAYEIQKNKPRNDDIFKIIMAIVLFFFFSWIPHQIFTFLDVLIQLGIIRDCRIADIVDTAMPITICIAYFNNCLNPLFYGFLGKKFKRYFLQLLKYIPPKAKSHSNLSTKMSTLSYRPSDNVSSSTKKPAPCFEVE
- method: AT1R endocytosis BRET at plasma membrane (AT1R-RlucII/lyn-rGFP)
- Format: cell-based
- Set-up: signal peptide-Flag-human AT1R (spFlag-AT1R); signal peptide (N); expressed in transfected cells; host or cells: HEK293SL (HEK293 for the screen)
- experimentalSetup: FIG. 6B, 30 min; read-out: potency to promote AT1R internalization
No end group written: not given here.
experimentalReadout: EC50

Field: EC50 (AT1R (Homo sapiens, UniProt P30556)). Entry: DRVYVHPG [DVG, [Asp^1,Val^5, Gly^8]-AngII]
75 nM
